Reference source for all entries: patent US20260092093A1

measured on: T1, hIL-18BP-hFc (human, UniProt O95998 31-194, limits assumed)
T1 sequence (looked up): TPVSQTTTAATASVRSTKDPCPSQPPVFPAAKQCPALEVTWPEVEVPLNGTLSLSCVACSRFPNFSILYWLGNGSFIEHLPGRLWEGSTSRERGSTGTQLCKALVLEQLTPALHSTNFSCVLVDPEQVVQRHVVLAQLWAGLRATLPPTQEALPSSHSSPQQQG
protocol details: cell-based or functional assay
Would you mind telling me the reported EC50 (nM) in the Presence of 1 µg/mL hIL-18BP-hFc, hIL-18 reporter assay of each entry?
Value expressed in nM; do not type the unit.

Value of measured EC50 (nM) in the Presence of 1 µg/mL hIL-18BP-hFc, hIL-18 reporter assay for the entry IL-18 variant polypeptide M20 (ligand) YFPKLRSKLSVIRNLNDQVLFIDQGNRPLFEDMTDSDCRDNAPRTIFIISMYKSSRSRGMAVTISVKCEKISTLSCENKIISFKEMNPPDGIKDTKSDIIFFQSSVPGHDNKMQFESSSYEGYFLACEKERDLFKLILKKEDELGDRSIMFTVQNED : 0.5

Item: IL-18 variant polypeptide M1 (ligand) YFPKLKSKLSVIRNLNDQVLFIDQGNRPLFEDMTDSDCRDNAPRTIFIISMYKHSDRRGMAVTISVKCEKISTLSCENKIISFKEMNPPDVIKDTKSDIIFFQVSVPGHDNKMQFESSSYEGYFLACEKERDLFKLILKKEDELGDRSIMFTVQNED | EC50 (nM) in the Presence of 1 µg/mL hIL-18BP-hFc, hIL-18 reporter assay: 3.45

For reference, reported EC50 (nM) in the Presence of 1 µg/mL hIL-18BP-hFc, hIL-18 reporter assay for IL-18 variant polypeptide M28 (ligand) YFPKLASKLSVIRNLNDQVLFIDQGNRPLFEDMTDSDCRDNAPRTIFIISMYKWSGGRGMAVTISVKCEKISTLSCENKIISFKEMNPPDVIKDTKSDIIFFQYSVPGHDNKMQFESSSYEGYFLACEKERDLFKLILKKEDELGDRSIMFTVQNED stands at 0.042

// field: EC50 (nM) in the Presence of 1 µg/mL hIL-18BP-hFc, hIL-18 reporter assay; key: IL-18 variant polypeptide WM6 (ligand) YFDKLKSKLSVIRNLNDQVLFIDQGNRPLFEDMTDSDCRDNAPRTIFIISMYKDSQPRGMAVTISVKCEKISTLSCENKIISFKEMNPPDSIKDTKSDIIFFQRSVPGHDNKMQFESSSYEGYFLACEKERDLFKLILKKEDELGDRSIMFTVQNED ; value = 0.74

Per the record, IL-18 variant polypeptide M30 (ligand) YFPKLLSKLSVIRNLNDQVLFIDQGNRPLFEDMTDSDCRDNAPRTIFIISMYKHSTVRGMAVTISVKCEKISTLSCENKIISFKEMNPPDSIKDTKSDIIFFQRSVPGHDNKMQFESSSYEGYFLACEKERDLFKLILKKEDELGDRSIMFTVQNED has EC50 (nM) in the Presence of 1 µg/mL hIL-18BP-hFc, hIL-18 reporter assay of 1.7

Per the record, IL-18 variant polypeptide M7 (ligand) YFPKLRSKLSVIRNLNDQVLFIDQGNRPLFEDMTDSDCRDNAPRTIFIISMYKHSTARGMAVTISVKCEKISTLSCENKIISFKEMNPPDAIKDTKSDIIFFQRSVPGHDNKMQFESSSYEGYFLACEKERDLFKLILKKEDELGDRSIMFTVQNED has EC50 (nM) in the Presence of 1 µg/mL hIL-18BP-hFc, hIL-18 reporter assay of 0.25

Short answer for IL-18 variant polypeptide M11 (ligand) YFPKLRSKLSVIRNLNDQVLFIDQGNRPLFEDMTDSDCRDNAPRTIFIISMYKSSRNRGMAVTISVKCEKISTLSCENKIISFKEMNPPDGIKDTKSDIIFFQTSVPGHDNKMQFESSSYEGYFLACEKERDLFKLILKKEDELGDRSIMFTVQNED : EC50 (nM) in the Presence of 1 µg/mL hIL-18BP-hFc, hIL-18 reporter assay was 0.21
